I'd appreciate it if you could supply koff values for the items below.
STUDY_SYSTEM: T1, gp120IIIB (subgroup B) (HIV-1, UniProt P04578 33-511)
T1 construct: it is not tied to this reagent; also called IIIB gp120 (B)
RUN_DESCRIPTION: SPR
Answer with a number only, understood to be in s⁻¹.

Exercise: Note koff for the binder shown: L82B4F (VHH, Family member of L81H9; tags not written into the chain) VHH: EVQLVESGGGLVQAGGSLRLSCAASGFTSDDYAIGWFRRAPGKEREGVSYISIEDGSTYSADSVKGRFTISSDYAKNTVYLQMNGLKPEDTAVYYCAAAILGDSVRWLQEYDYDYWGQGTQVTVSS
Key: 0.000734

Exercise: Note koff for the binder shown: L91H9 (VHH, Purified by IMAC; tags not written into the chain) VHH: EVQLVESGGGLVQAGGSLRLSCAVSGATFDDYAIGWFRQAPGKEREGVSYIGCNDGSTYYAGSVKGRFTISCDYAKNTVYLQMNSLKPEDTAVYYCAAAAQWATIRWIHEYDYDTWGQGTQVTVSS
Key: 0.000711

Exercise: Note koff for the binder shown: L91C2 (VHH, Purified by IMAC; tags not written into the chain) VHH: EVQLVESGGGLVQPGGSLRLSCAASGFTLDGYAIGWFRQAPGKEREAISCITTAGTIYYADSVKGRVTISRDNAKNTVYLQMNSLKPEDTAVYLCAADGFDTPCVAGTDWGYDYEGQGTQVTVSS
Key: 0.00025

Exercise: Note koff for the binder shown: L92E7 (VHH, Purified by IMAC; tags not written into the chain) VHH: EVQLVESGGGLVQPGGSLRLSCAASGNIVSIDAAGWFRQAPGKQREPVATILTGGATNYADSVKGRFTISRDNAKNTVYLQMSSLKPEDTAVYYCYAPMIYYGGRYSDYWGQGTQVTVSS
Key: 0.00077
